Please go through the items and note down their Relative activity, HUVEC-IL6 production by IL33.
System: T1, ST2 on the effector cells (KU812, KU812/NF-κB-1#, HUVEC, HMC-1) (human, UniProt Q01638 19-556)
T1 sequence (looked up): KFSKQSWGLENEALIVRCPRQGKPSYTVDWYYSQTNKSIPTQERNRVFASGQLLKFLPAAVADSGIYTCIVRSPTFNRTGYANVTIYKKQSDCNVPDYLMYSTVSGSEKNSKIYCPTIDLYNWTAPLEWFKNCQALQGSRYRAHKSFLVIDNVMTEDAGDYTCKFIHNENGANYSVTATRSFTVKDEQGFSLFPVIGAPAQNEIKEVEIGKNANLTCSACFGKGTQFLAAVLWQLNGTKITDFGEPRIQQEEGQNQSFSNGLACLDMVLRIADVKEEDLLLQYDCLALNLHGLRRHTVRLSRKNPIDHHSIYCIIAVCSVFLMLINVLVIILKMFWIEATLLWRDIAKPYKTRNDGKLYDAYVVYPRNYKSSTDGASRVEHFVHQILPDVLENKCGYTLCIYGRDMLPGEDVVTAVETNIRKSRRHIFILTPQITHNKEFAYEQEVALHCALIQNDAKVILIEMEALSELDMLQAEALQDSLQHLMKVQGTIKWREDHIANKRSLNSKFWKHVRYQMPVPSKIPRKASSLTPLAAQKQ
Test description: cell-based or functional assay
Answer in %, number only, no unit symbol.

Looking for the measured Relative activity, HUVEC-IL6 production by IL33 of 5888-379-H2L1 (antibody, human IgG4 S228P, kappa, V domains shown, Humanized antibody) VH: QVQLVQSGAEVKKPGASVKVSCKASGYTFINYGMNWVRQAPGQRLEWMGWINTYIGEPTYGDNFKGRVTITRDTSASTAYMELSSLRSEDTAVYYCAREGDAFAYWGQGTLVTVSS VL: DIQMTQSPSSLSASVGDRVTITCKSSQSLLYSGNQNNYLAWYQQKPGKVPKLLIYGASTRESGVPSRFSGSGSGTDFTLTISSLQPEDLATYYCQNDHSYPYTFGGGTKVEIKR , can you help?
10.4

Next binder up: 5886-156-H1L0 (antibody, human IgG4 S228P, kappa, V domains shown, Humanized antibody expressed in CHO-K1, purified by protein A) VH: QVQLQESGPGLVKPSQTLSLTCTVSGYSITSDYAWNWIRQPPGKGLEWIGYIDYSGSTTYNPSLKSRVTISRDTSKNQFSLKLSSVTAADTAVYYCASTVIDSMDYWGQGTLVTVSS VL: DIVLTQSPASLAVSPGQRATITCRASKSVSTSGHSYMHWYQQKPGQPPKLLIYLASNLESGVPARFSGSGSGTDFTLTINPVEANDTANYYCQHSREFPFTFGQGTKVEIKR
67.3

Next binder up: 5888-116-H0L1 (antibody, human IgG4 S228P, kappa, V domains shown, Humanized antibody) VH: QVQLVQSGAEVKKPGASVKVSCKASGYTFTDSEMYWVRQAPGQGLEWMGAIDPETGDTAFNQKFKGRVTMTRDTSTSTVYMELSSLRSEDTAVYYCARAFDNDNDDGFAYWGQGTMVTVSS VL: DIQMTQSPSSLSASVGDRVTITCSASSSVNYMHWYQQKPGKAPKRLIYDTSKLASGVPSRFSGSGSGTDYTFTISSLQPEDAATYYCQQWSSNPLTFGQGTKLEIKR
328

Next binder up: 5888-153-H3L1 (antibody, human IgG4 S228P, kappa, V domains shown, Humanized antibody) VH: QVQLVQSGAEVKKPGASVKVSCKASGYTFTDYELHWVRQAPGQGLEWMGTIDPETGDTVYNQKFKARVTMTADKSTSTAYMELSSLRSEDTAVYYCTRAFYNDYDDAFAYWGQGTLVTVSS VL: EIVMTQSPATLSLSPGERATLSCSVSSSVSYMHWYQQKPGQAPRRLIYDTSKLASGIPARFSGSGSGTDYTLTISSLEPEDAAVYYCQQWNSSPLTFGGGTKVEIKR
167
